target: human NTCP (Homo sapiens, UniProt Q14973); experiment: Screening taurocholate uptake assay (96-well, [14C]taurocholate, 10 µM drug); details: Prestwick library screen, taurocholate uptake, 10 µM drug
Sequence (Q14973 whole entry): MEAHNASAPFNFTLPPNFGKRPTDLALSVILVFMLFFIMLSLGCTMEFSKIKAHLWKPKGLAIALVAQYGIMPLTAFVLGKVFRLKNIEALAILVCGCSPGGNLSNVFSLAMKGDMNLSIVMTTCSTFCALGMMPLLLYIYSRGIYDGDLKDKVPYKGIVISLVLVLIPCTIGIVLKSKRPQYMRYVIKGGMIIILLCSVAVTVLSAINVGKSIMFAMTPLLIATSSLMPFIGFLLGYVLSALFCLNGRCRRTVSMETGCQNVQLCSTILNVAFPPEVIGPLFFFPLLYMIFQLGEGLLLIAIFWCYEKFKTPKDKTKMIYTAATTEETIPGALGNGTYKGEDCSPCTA
Grouping by measured B-score functional assay is done with the following cut points: low end = under -0.08, middle = from -0.08 up to 0.3, high end = 0.3 and over

Take a look at these entries with their results.
molecule: C[N+](C)(C)CCCCCC[N+](C)(C)C.O.O.[Br-].[Br-] [Hexamethonium dibromide dihydrate]
assigned label: middle
//
molecule: Cc1nc2ccccn2c(=O)c1CCN1CCC(C(=O)c2ccc(F)cc2)CC1
assigned label: low end
//
molecule: CCC(=O)O[C@@H](O[P@](=O)(CCCCc1ccccc1)CC(=O)N1C[C@H](C2CCCCC2)C[C@H]1C(=O)O)C(C)C
assigned label: high end
//
molecule: C[C@H]1O[C@H](O[C@H]2[C@H](O)[C@@H](O)[C@@H](O[C@H]3[C@H](O)[C@@H](O)C(O)O[C@@H]3CO)O[C@@H]2CO)[C@H](O)[C@@H](O)[C@@H]1N[C@H]1C=C(CO)[C@@H](O)[C@H](O)[C@H]1O (stereo partly shown)
assigned label: high end
//
molecule: Cc1noc(NS(=O)(=O)c2ccc(N)cc2)c1C
assigned label: low end

Inquiry: Assign a category based on measured B-score functional assay for CC(C)NC[C@@H](O)c1ccc(O)c(O)c1.O=C(O)C(O)C(O)C(=O)O [(+)-Isoproterenol (+)-bitartrate salt] and give only the class name.
Reply text: high end

----------
target: human NTCP (Homo sapiens); assay: Screening taurocholate uptake assay (96-well, [14C]taurocholate, 10 µM drug); details: Prestwick library screen, 10 µM drug; B-score of taurocholate uptake
Counter-ions that a name gives are not always drawn.
value kind: B-score functional assay
Lab note: record the figure alone, no unit after it.

Example results:
compound: Cc1cc(C(C)(C)C)c(O)c(C)c1CC1=NCCN1 [Oxymetazoline hydrochloride]
B-score functional assay: 0.493
//
compound: CC(=O)/N=c1/sc(S(N)(=O)=O)nn1C [Methazolamide]
B-score functional assay: 2.368
//
compound: CCN(CC)CCNC(=O)COc1ccc(OC)cc1.Cl [Mefexamide hydrochloride]
B-score functional assay: 1.015

Inquiry: Would you kindly share the measured B-score functional assay for CC(COc1ccccc1)NC(C)C(O)c1ccc(O)cc1 (stereo not shown) [Isoxsuprine hydrochloride] ?
Reply text: 0.459

Inquiry: Would you kindly share the measured B-score functional assay for CC(NCCC(c1ccccc1)c1ccccc1)c1ccccc1 (stereo not shown) [Fendiline hydrochloride] ?
Reply text: 0.662

Inquiry: Would you kindly share the measured B-score functional assay for CCCCNc1cc(C(=O)O)cc(S(N)(=O)=O)c1Oc1ccccc1 [Bumetanide] ?
Reply text: 0.161

Inquiry: Would you kindly share the measured B-score functional assay for CC[C@H]1OC(=O)[C@H](C)[C@@H](O[C@H]2C[C@@](C)(OC)[C@@H](O)[C@H](C)O2)[C@H](C)[C@@H](O[C@@H]2O[C@H](C)C[C@H](N(C)C)[C@H]2O)[C@](C)(O)C[C@@H](C)[C@@H]2N[C@@H](COCCOC)O[C@H]([C@H]2C)[C@]1(C)O ?
Reply text: 1.532

----------
molecular target: human NTCP (Homo sapiens); assay: Screening taurocholate uptake assay (96-well, [14C]taurocholate, 10 µM drug); conditions: ranking over the functional and the binding screening assay
Counter-ions that a name gives are not always drawn.
Please mark label 1 if the recorded Ranking score is equal to or greater than 200, and label 0 if it falls below.

molecule: CN1C[C@H](CNC(=O)OCc2ccccc2)C[C@@H]2c3cccc4c3c(cn4C)C[C@H]21 [Metergoline]
assigned label: label 1
--
molecule: C=C1/C(=C\C=C2/CCC[C@]3(C)[C@@H]([C@H](C)/C=C/[C@@H](O)C4CC4)CC[C@@H]23)C[C@@H](O)C[C@@H]1O [Calcipotriene]
assigned label: label 0
--
molecule: CC[C@H](C)[C@H]1O[C@]2(CC[C@@H]1C)C[C@@H]1C[C@@H](C/C=C(\C)[C@@H](O[C@H]3C[C@H](OC)[C@@H](O[C@H]4C[C@H](OC)[C@@H](O)[C@H](C)O4)[C@H](C)O3)[C@@H](C)/C=C/C=C3\CO[C@@H]4[C@H](O)C(C)=C[C@@H](C(=O)O1)[C@]34O)O2 [Ivermectin]
assigned label: label 0
--
molecule: CN(Cc1cc(Br)cc(Br)c1N)C1CCCCC1 [Bromhexine hydrochloride]
assigned label: label 0
--
molecule: C[C@@H](O[C@H]1OCCN(Cc2n[nH]c(=O)[nH]2)[C@H]1c1ccc(F)cc1)c1cc(C(F)(F)F)cc(C(F)(F)F)c1 [Aprepitant]
assigned label: label 0

Inquiry: Could you please find out whether COCC(=O)Nc1c(I)c(C(=O)NCC(O)CO)c(I)c(C(=O)N(C)CC(O)CO)c1I (stereo not shown) [Iopromide] has Ranking score that meets 200 or exceeds it?
Reply text: label 0

Inquiry: Could you please find out whether CC[C@H](C)[C@H]1O[C@]2(C=C[C@@H]1C)C[C@@H]1C[C@@H](C/C=C(\C)[C@@H](O[C@H]3C[C@H](OC)[C@@H](O[C@H]4C[C@H](OC)[C@@H](O)[C@H](C)O4)[C@H](C)O3)[C@@H](C)/C=C/C=C3\CO[C@@H]4[C@H](O)C(C)=C[C@@H](C(=O)O1)[C@]34O)O2 [Avermectin B1a] has Ranking score that meets 200 or exceeds it?
Reply text: label 0

Inquiry: Could you please find out whether CC(O)(CS(=O)(=O)c1ccc(F)cc1)C(=O)Nc1ccc(C#N)c(C(F)(F)F)c1 (stereo not shown) [Bicalutamide] has Ranking score that meets 200 or exceeds it?
Reply text: label 1

----------
target: human NTCP (Homo sapiens); assay: Screening fluorescent competitive Myrcludex B-FITC binding assay (96-well, 10 µM drug); conditions: Prestwick library screen, Myrcludex B-FITC binding, 10 µM drug
Where a name gives a salt, the structure may show the parent alone.
Please mark label 1 if the recorded B-score binding assay is equal to or greater than 0.3, and label 0 if it falls below.

compound: CCCNC(=O)NS(=O)(=O)c1ccc(Cl)cc1 [Chlorpropamide]
assigned label: label 0
//
compound: CCCc1cc(C(N)=S)ccn1 [Prothionamide]
assigned label: label 1
//
compound: CCCCC(=O)O[C@H]1CC[C@H]2[C@@H]3CCc4cc(O)ccc4[C@H]3CC[C@]12C [Estradiol Valerate]
assigned label: label 1

We next turn to a different compound, shown below.
Inquiry: Could you please find out whether CCn1cc(C(=O)O)c(=O)c2cc(F)c(N3CCNC(C)C3)c(F)c21 (stereo not drawn) [Lomefloxacin hydrochloride] has B-score binding assay that meets 0.3 or exceeds it?
Reply text: label 1

----------
target: human NTCP (Homo sapiens); test: Screening taurocholate uptake assay (96-well, [14C]taurocholate, 10 µM drug); settings: screening taurocholate uptake, 10 µM drug
Structures can show the parent of a compound that is named as a salt.
value kind: B-score functional assay

Example results:
compound: CS(=O)(=O)O.Cc1ccc2c(c1)c1c3n2CCNC3CCC1 (stereo not shown) [Pirlindole mesylate]
result value: 0.129
//
compound: CC(=O)O[C@@]12CO[C@@H]1C[C@H](O)[C@@]1(C)C(=O)[C@H](O)C3=C(C)[C@@H](OC(=O)[C@H](O)[C@@H](NC(=O)OC(C)(C)C)c4ccccc4)C[C@@](O)([C@@H](OC(=O)c4ccccc4)[C@H]21)C3(C)C
result value: -5.513
//
compound: [H]/N=C(\N/C(=N/[H])NCCCCCCNC(=N)NC(=N)Nc1ccc(Cl)cc1)Nc1ccc(Cl)cc1
result value: 0.062
//
compound: CC[C@H](C)C(=O)O[C@H]1C[C@H](O)C=C2C=C[C@H](C)[C@H](CC[C@@H](O)C[C@@H](O)CC(=O)O)[C@H]21
result value: -3.481
//
compound: NC(=NCc1ccccc1)NC(=O)c1nc(Cl)c(N)nc1N [Benzamil hydrochloride]
result value: -0.089
//
compound: COc1ccccc1OCC(O)COC(N)=O (stereo not shown)
result value: -0.493

Inquiry: Would you kindly share the measured B-score functional assay for CC[C@H](C)C(=O)O[C@H]1C[C@@H](C)C=C2C=C[C@H](C)[C@H](CC[C@@H]3C[C@@H](O)CC(=O)O3)[C@H]21 ?
Reply text: -0.084

Inquiry: Would you kindly share the measured B-score functional assay for CN(C)CCN1C(=O)c2ccccc2N(C)c2ccccc21.Cl [Dibenzepine hydrochloride] ?
Reply text: -0.713

Inquiry: Would you kindly share the measured B-score functional assay for Clc1ccc(CCC(Cn2ccnc2)Sc2c(Cl)cccc2Cl)cc1 (stereo not shown) [Butoconazole nitrate] ?
Reply text: -3.692

Inquiry: Would you kindly share the measured B-score functional assay for O=C(O)CCCC[C@@H]1SC[C@@H]2NC(=O)N[C@@H]21 ?
Reply text: -2.274

----------
target: human NTCP (Homo sapiens); assay: Screening taurocholate uptake assay (96-well, [14C]taurocholate, 10 µM drug); conditions: screen, 10 µM drug, taurocholate uptake
Counter-ions that a name gives are not always drawn.
Each item that follows carries a reported B-score functional assay.
Lab note: record the figure alone, no unit after it.

compound: COc1c(N2C[C@@H]3CCCN[C@@H]3C2)c(F)cc2c(=O)c(C(=O)O)cn(C3CC3)c12
result value: 0.4
//
compound: CCN1CCCC(OC(=O)C(c2ccccc2)c2ccccc2)C1 (stereo not drawn) [Piperidolate hydrochloride]
result value: 1.475
//
compound: C[C@]12CCC(=O)C=C1CC[C@@H]1[C@@H]2C(=O)C[C@]2(C)C(=O)CC[C@@H]12
result value: -0.902
//
compound: CNCCCC1c2ccccc2C=Cc2ccccc21 [Protriptyline hydrochloride]
result value: -0.483
//
compound: C[C@H]1NC(=O)NC1=O
result value: 0.047

Inquiry: Would you kindly share the measured B-score functional assay for CC[C@H]1OC(=O)[C@H](C)[C@@H](O[C@H]2C[C@@](C)(OC)[C@@H](O)[C@H](C)O2)[C@H](C)[C@@H](O[C@@H]2O[C@H](C)C[C@H](N(C)C)[C@H]2O)[C@](C)(OC)C[C@@H](C)C(=O)[C@H](C)[C@@H](O)[C@]1(C)O ?
Reply text: -1.781

Inquiry: Would you kindly share the measured B-score functional assay for O=P(O)(O)C(O)(Cn1ccnc1)P(=O)(O)O [Zoledronic acid hydrate] ?
Reply text: -0.476
